Target: T1, EsCas13d, nuclease-dead (Eubacterium siraeum, UniProt B0MS50, R295A;H300A;R849A;H854A)
T1 sequence: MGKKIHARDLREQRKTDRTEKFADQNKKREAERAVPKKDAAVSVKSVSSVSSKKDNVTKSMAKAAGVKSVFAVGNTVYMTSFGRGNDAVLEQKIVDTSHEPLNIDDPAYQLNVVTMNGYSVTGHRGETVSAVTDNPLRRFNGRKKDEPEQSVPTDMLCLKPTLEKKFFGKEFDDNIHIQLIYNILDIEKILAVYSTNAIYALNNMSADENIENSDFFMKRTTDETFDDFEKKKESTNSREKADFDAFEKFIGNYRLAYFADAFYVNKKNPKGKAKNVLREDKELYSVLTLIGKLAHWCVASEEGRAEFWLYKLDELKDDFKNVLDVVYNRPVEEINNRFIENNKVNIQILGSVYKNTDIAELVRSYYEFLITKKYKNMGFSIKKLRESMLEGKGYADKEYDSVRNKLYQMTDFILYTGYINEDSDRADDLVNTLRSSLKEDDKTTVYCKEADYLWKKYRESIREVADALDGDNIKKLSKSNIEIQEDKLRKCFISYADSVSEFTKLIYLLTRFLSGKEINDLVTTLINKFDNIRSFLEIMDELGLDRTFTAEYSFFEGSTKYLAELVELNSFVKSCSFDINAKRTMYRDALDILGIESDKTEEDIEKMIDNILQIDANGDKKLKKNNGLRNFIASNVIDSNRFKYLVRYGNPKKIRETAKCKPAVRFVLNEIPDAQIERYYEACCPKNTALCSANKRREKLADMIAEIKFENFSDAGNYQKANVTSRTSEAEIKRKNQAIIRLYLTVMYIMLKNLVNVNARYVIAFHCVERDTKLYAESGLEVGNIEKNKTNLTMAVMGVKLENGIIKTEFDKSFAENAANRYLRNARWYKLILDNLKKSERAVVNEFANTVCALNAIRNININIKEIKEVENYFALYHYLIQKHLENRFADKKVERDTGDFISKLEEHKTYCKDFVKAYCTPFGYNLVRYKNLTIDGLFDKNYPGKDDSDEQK
Experiment: crRNA (strand 1, pre-loaded); Mg2+; 40 mM Tris-HCl pH 7.5, 150 mM NaCl, 6 mM MgCl2, 1 mM DTT, 0.1% Tween-20, 0.2 mg/ml BSA; 25 C; 10 min per concentration, then washed
Conditions: tags: His6-TwinStrep-SUMO cleaved; N-terminal SNAP kept (SNAP-Surface 488); label: 3' end held by stalled T7 RNA polymerase
metric: Kd (nM)

>>> measured("target 3 G4U,A11G (mixed) RNA 1: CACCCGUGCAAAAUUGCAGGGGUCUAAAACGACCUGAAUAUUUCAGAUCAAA RNA 2: GGGAAUGGAUCCACAUCUACGAAUUCGUUUUUGAUCUGAAGUAUUCAUGUCUGCAGAUCGGAAGAGCACACGU")
43.5
>>> measured("target 1 C6U,U10C (mixed) RNA 1: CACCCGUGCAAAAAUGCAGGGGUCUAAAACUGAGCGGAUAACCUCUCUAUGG RNA 2: GGGAAUGGAUCCACAUCUACGAAUUCGUACCAUAGAGAGGUCAUCUGCUCACCGAGAUCGGAAGAGCACACGU")
19.7
>>> measured("target 2 MT 5'PFS UUU 3'PFS CUA (mixed) RNA 1: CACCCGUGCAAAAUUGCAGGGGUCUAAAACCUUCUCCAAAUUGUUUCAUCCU RNA 2: GGGAAUGGAUCCACAUCUACGAAUUCUUUAGGAUGAAACAAUUUGGAGAAGCUAAGAUCGGAAGAGCACACGU")
16
>>> measured("target 1 MT 5'PFS GGC 3'PFS CGG (mixed) RNA 1: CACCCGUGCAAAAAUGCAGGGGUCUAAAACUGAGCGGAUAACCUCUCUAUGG RNA 2: GGGAAUGGAUCCACAUCUACGAAUUCGGCCCAUAGAGAGGUUAUCCGCUCACGGAGAUCGGAAGAGCACACGU")
27.5
>>> measured("target 1 insG 3' of 18 (mixed) RNA 1: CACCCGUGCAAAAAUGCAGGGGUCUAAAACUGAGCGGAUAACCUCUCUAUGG RNA 2: GGGAAUGGAUCCACAUCUACGAAUUCGUACCAUAGGAGAGGUUAUCCGCUCACCGAGAUCGGAAGAGCACACGU")
48
